Target: T1, human RXFP1 (human, UniProt Q9HBX9 1-757)
T1 sequence (looked up): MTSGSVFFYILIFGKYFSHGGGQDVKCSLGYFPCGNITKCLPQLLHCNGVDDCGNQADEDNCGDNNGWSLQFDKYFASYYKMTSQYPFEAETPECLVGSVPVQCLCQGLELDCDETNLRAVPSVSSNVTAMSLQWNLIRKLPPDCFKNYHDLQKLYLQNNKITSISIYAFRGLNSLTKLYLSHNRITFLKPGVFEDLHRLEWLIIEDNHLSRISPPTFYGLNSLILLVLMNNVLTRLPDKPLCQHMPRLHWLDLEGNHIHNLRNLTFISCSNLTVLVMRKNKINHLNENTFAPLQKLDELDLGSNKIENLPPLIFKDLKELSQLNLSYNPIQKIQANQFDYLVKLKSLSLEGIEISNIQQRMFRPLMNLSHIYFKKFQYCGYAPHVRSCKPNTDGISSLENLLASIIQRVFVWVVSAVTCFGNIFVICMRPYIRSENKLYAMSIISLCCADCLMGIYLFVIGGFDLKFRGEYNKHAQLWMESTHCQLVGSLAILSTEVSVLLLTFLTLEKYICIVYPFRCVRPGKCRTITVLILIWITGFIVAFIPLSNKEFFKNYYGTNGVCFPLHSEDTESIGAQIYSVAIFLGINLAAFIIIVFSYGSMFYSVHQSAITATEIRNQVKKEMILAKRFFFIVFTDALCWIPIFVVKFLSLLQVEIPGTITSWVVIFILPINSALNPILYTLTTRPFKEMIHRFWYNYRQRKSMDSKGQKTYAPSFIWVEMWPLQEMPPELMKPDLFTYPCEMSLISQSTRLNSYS
Assay: cell-based or functional assay
PROPERTY LABEL: Potency (cAMP, transient hRXFP1 in HEK293) (nM)
Numeric answer only, unit nM assumed.

SEQ ID NO: 366 (Fc fusion) DKTHTCPPCPAPEAAGGPSVFLFPPKPKDTLMISRTPEVTCVVVDVSHEDPEVKFNWYVDGVEVHNAKTKPREEQYNSTYRVVSVLTVLHQDWLNGKEYKCKVSNKALAAPIEKTISKAKGQPREPQVYTLPPSRDELTKNQVSLTCLVKGFYPSDIAVEWESNGQPENNYKTTPPVLDSDGSFFLYSKLTVDKSRWQQGNVFSCSVLHEALHSHYTQKSLSLSPGKGGSDSWQEEVIKLCGRELVRAQIAICGKSTGGEGGGEEGGGEGGQLYSALANKCCHVGCTKRSLARFC
62.8

Shifting focus to the binder that follows.
// Potency (cAMP, transient hRXFP1 in HEK293) lookup, key: SEQ ID NO: 100 (Fc fusion) DKTHTCPPCPAPEAAGGPSVFLFPPKPKDTLMISRTPEVTCVVVDVSHEDPEVKFNWYVDGVEVHNAKTKPREEQYNSTYRVVSVLTVLHQDWLNGKEYKCKVSNKALAAPIEKTISKAKGQPREPQVYTLPPSRDELTKNQVSLTCLVKGFYPSDIAVEWESNGQPENNYKTTPPVLDSDGSFFLYSKLTVDKSRWQQGNVFSCSVLHEALHSHYTQKSLSLSPGEGGSDSWQEEVIKLCGRELVRAQIAICGQSTASDAAGADADAGARQLYSALANKCCHVGCTKRSLAQFC
28.7
